Target: T1, Spy (WT Spy), ATP-independent periplasmic chaperone (Escherichia coli, UniProt P77754 24-161)
T1 sequence (looked up): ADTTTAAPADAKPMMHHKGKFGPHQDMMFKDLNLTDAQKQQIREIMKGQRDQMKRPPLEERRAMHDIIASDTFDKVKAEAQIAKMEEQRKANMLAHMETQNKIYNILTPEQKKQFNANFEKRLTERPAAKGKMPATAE
Experiment: ITC
Reported Kd values for the following binders.
Quick note: give the figure in µM, leave out the unit.

Field: example entries. Status: answers known.
[
  {
    "Binder": "Im7-L53A I54A (mimic of the Im7 folding intermediate, Im7I) (natural protein, UniProt Q03708 1-87, looked up) MELKNSISDYTEAEFVQLLKEIEKENVAATDDVLDVLLEHFVKITEHPDGTDAAYYPSDNRDDSPEGIVKEIKEWRAANGKPGFKQG",
    "Kd / µM": 3.5
  },
  {
    "Binder": "Immunity protein 7, wild type (Im7-WT) (natural protein, UniProt Q03708 1-87, looked up) MELKNSISDYTEAEFVQLLKEIEKENVAATDDVLDVLLEHFVKITEHPDGTDLIYYPSDNRDDSPEGIVKEIKEWRAANGKPGFKQG",
    "Kd / µM": 20.5
  }
]

In the following, a different binder is considered.
Item: Im7-L18A L19A L37A (mimic of unfolded Im7, Im7U) (natural protein, UniProt Q03708 1-87, looked up) MELKNSISDYTEAEFVQAAKEIEKENVAATDDVLDVALEHFVKITEHPDGTDLIYYPSDNRDDSPEGIVKEIKEWRAANGKPGFKQG | Kd: 10.4
